All values here come from patent US20080269251A1.

target: 5HT-transporter (Homo sapiens, UniProt P31645); construct: Human platelet membranes (Oceanix Biosciences Corporation, Hanover, Md., USA) were thawed; tissue Oceanix Biosciences Corporation, Hanover, Md., USA; host or cells: human platelet membranes; assay: Binding experiment for the 5HT-transporter ([3H]paroxetine, human platelet membranes); settings: [3H]paroxetine 0.5 nM, 60 min at 25° C., read-out: h-5HTT pIC50 (converted)
Sequence (P31645 whole entry): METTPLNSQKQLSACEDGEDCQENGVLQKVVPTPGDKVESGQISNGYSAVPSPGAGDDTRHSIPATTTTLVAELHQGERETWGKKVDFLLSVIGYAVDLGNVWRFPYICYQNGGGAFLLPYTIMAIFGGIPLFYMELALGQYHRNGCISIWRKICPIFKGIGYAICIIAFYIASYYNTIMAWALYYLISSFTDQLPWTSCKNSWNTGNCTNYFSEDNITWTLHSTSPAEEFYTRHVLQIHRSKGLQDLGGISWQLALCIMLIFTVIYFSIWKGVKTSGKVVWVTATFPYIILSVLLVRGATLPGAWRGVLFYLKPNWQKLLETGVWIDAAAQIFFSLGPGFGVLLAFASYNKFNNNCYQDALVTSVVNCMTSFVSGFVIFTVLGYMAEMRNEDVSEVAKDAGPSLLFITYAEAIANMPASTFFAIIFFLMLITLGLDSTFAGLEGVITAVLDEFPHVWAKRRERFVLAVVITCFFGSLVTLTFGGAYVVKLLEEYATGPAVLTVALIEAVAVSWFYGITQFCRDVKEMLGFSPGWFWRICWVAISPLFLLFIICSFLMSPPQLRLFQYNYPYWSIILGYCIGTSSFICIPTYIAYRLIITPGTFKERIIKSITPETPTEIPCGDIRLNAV
outcome.measure: IC50 (nM)

INSERT INTO results (molecule, outcome_measure, units_of_measure, endpoint_result) VALUES
  ('NCc1ccc(-n2ccnc(NC3CCN(Cc4ccc5ccccc5c4)CC3)c2=O)cc1 [1-01]', 'IC50', 'nM', 20),
  ('CCCC(=O)NCc1ccc(-n2ccnc(NC3CCN(Cc4ccc5ccccc5c4)CC3)c2=O)cc1F [1-26]', 'IC50', 'nM', 7.94),
  ('O=c1c(NC2CCN(Cc3ccc4ccccc4c3)CC2)nccn1-c1nccs1 [6-01]', 'IC50', 'nM', 20),
  ('O=c1c(NC2CCN(Cc3ccc4ccccc4c3)CC2)nccn1Cc1cccc([N+](=O)[O-])c1 [5-09]', 'IC50', 'nM', 50.1),
  ('O=c1c(NC2CCN(Cc3ccc4ccccc4c3)CC2)nccn1-c1ccc2c(c1)CN(CCO)CC2 [6-12]', 'IC50', 'nM', 39.8),
  ('CC(C)(C)OC(=O)NCc1ccc(Cn2ccnc(NC3CCN(Cc4ccc5ccccc5c4)CC3)c2=O)cc1 [1-34]', 'IC50', 'nM', 79.4),
  ('COc1ccc(Cn2c(-c3ccc(CNCC4CCCO4)cc3)c(Cl)nc(NC3CCN(Cc4ccc5ccccc5c4)CC3)c2=O)cc1 (stereo not shown) [8-08]', 'IC50', 'nM', 63.1),
  ('COc1ccc(Cn2c(-c3ccc(CN4CCC(O)CC4)cc3)c(Cl)nc(NC3CCN(Cc4ccc5ccccc5c4)CC3)c2=O)cc1 [8-11]', 'IC50', 'nM', 31.6);

A. O=c1c(NC2CCN(Cc3ccc4ncccc4c3)CC2)nccn1CCCOCc1ccccc1 [9-06]
B. CN(C(=O)Cn1ccnc(NC2CCN(Cc3ccc4ccccc4c3)CC2)c1=O)c1ccccc1 [1-63]
C. O=C(CNCCCn1ccnc(NC2CCN(Cc3ccc4ccccc4c3)CC2)c1=O)c1coc2ccccc12 [1-103]
D. COCCN(C)Cc1ccc(-n2ccnc(NC3CCN(Cc4ccc5ccccc5c4)CC3)c2=O)cc1 [1-21]
E. CC(C)(C)C(=O)Cn1ccnc(NC2CCN(Cc3ccc4ccccc4c3)CC2)c1=O [5-04]
## Input Arrange the 5 entries by IC50 so the values rise. Please list the labels according to the requested order.
## Output D, A, B, C, E
(D: 15.8 nM, A: 39.8 nM, B: 63.1 nM, C: 158 nM, E: 398 nM)
